# studySystem: CXCR1 receptor (Homo sapiens (Human))
# Sequence (P25024 whole entry): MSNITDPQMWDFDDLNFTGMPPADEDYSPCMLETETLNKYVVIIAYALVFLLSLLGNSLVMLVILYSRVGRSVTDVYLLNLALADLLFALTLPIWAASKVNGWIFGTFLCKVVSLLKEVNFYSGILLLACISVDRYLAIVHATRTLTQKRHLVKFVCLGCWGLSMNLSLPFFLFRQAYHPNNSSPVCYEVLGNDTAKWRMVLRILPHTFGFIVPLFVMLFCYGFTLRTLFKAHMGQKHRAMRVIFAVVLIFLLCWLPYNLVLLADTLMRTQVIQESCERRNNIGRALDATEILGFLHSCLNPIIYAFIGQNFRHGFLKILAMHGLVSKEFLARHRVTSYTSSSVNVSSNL
# runDescription: β-arrestin 2 recruitment test, U2OS hCXCR1 β-arrestin cells stimulated with CXCL8
# testParameters: CXCL8 stimulation
observedProperty: IC50 (µM)

>>> endpointresult("Cc1ccc(C(Nc2c(Nc3cccc(C(=O)N4CC[C@@H](O)C4)c3O)c(=O)c2=O)C2(C)COC2)o1 (stereo partly shown) [Example 5]")
2.62

A: Cc1ccc(C(Nc2c(Nc3cccc(C(=O)N4CC[C@H](O)C4)c3O)c(=O)c2=O)C2(C)COC2)o1 (stereo partly shown) [Example 6]
B: CCC1(C(Nc2c(Nc3cccc(C(=O)N(C)C)c3O)c(=O)c2=O)c2ccc(C)o2)COC1 (stereo not shown) [Example 3]
C: COc1ccc(Nc2c(NC(c3ccc(C)o3)C3(C)COC3)c(=O)c2=O)c(O)n1 (stereo not shown) [Example 39]
Enquiry: Rank ascending by IC50. Write the labels, ordered according to the request.
Return: B, A, C

---

# studySystem: CXCR1 receptor (Homo sapiens (Human))
# runDescription: β-arrestin 2 recruitment test, U2OS hCXCR1 β-arrestin cells stimulated with CXCL8
# testParameters: CXCL8 stimulation
observedProperty: IC50 (nM)

Use the examples below as a reference point.
>>> endpointresult("Cc1ccc(C(Nc2c(Nc3cccc(C(=O)N4CCC[C@@H]4C(=O)OC(C)(C)C)c3O)c(=O)c2=O)C2(C)COC2)o1 (stereo partly drawn)")
2410
>>> endpointresult("Cc1ccc([C@H](Nc2c(Nc3cccc(C(=O)N(C)CC(F)(F)F)c3O)c(=O)c2=O)C2(C)COC2)o1")
566
>>> endpointresult("COc1cccc(C(Nc2c(Nc3cccc(C(=O)N(C)C)c3O)c(=O)c2=O)C2(C)COC2)c1 (stereo not drawn)")
5540
>>> endpointresult("Cc1ccc(C(Nc2c(Nc3cccnc3O)c(=O)c2=O)C2(C)COC2)o1 (stereo not drawn)")
6620
>>> endpointresult("COC(=O)[C@@H]1CCCN1C(=O)c1cccc(Nc2c(N[C@@H](c3ccc(C)o3)C3(C)COC3)c(=O)c2=O)c1O")
666

1: CN(C)C(=O)c1cccc(Nc2c(NC(c3ccc4c(c3)OCO4)C3(C)COC3)c(=O)c2=O)c1O (stereo not drawn)
2: COC(=O)CN(C)C(=O)c1cccc(Nc2c(N[C@@H](c3ccc(C)o3)C3(C)COC3)c(=O)c2=O)c1O
Enquiry: Look at 1 and 2 . Which one has the lower recorded IC50 number? Pick one and reply with its label.
Return: 2

---

# studySystem: CXCR2 receptor (Homo sapiens (Human), UniProt P25025)
# Sequence (P25025 whole entry): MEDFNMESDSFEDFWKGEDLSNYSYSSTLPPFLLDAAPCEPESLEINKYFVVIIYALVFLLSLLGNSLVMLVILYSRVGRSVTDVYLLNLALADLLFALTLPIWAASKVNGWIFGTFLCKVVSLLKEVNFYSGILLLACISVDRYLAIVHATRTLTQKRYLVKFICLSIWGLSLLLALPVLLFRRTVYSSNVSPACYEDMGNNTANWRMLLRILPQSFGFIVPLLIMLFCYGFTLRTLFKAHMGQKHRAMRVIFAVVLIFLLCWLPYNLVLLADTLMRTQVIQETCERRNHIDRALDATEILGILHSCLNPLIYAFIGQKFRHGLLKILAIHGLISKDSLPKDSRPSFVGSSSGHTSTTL
# runDescription: β-arrestin 2 recruitment test, PathHunter HEK293-CXCR2 cells stimulated with CXCL8
# testParameters: CXCL8 stimulation
observedProperty: IC50 (nM)

>>> endpointresult("Cc1ccc(C(Nc2c(Nc3cccc(C(=O)N(C)C)c3O)c(=O)c2=O)C2(CF)COC2)o1 (centres unmarked)")
272
>>> endpointresult("CN(C)C(=O)c1cccc(Nc2c(NC(c3cccs3)C3(C)COC3)c(=O)c2=O)c1O (centres unmarked)")
106
>>> endpointresult("Cc1ccc([C@H](Nc2c(Nc3ccc(Cl)c(S(=O)(=O)N4CCN(C)CC4)c3O)c(=O)c2=O)C2(C)COC2)o1")
30
>>> endpointresult("COc1cccc(C(Nc2c(Nc3cccc(C(=O)N(C)C)c3O)c(=O)c2=O)C2(C)COC2)c1 (centres unmarked)")
475

1: Cc1cc(C(Nc2c(Nc3cccc(C(=O)N(C)C)c3O)c(=O)c2=O)C2(C)COC2)oc1C (centres unmarked)
2: CN(C)C(=O)c1cccc(Nc2c(NC(c3ccc4c(c3)OCO4)C3(C)COC3)c(=O)c2=O)c1O (centres unmarked)
3: Cc1ccc(C(Nc2c(Nc3ccc(Cl)nc3O)c(=O)c2=O)C2(C)COC2)o1 (centres unmarked)
4: Cc1coc(C(Nc2c(Nc3cccc(C(=O)N(C)C)c3O)c(=O)c2=O)C2(C)COC2)c1 (centres unmarked) [Example 37a]
Enquiry: Sequence the entries by IC50, beginning with the highest number. Write the labels, ordered according to the request.
Return: 3, 2, 1, 4
